# MEASUREMENT_DESCRIPTION: Pharmacokinetics in Cynomolgus monkeys, single subcutaneous or intravenous dose
# Type: in vivo
# APPLIED_CONDITIONS: both sexes, cynomolgus monkey, plasma, iv, 187 nmol/kg, single intravenous dose 187 nmol/kg, individual animal
*1 amine or outer side, *2 acyl side, *3 side chain or, on linkers, in order; H or OH if unused. Side-chain parts run from the residue outwards. [ ]: non-standard residue; d: D form. The star is where a group is joined. C20 diacid = O=C(O)CCCCCCCCCCCCCCCCCCC(=O)*; γGlu = O=C(O)[C@H](CCC(=O)[*:2])N[*:1]; εLys = N[C@@H](CCCCN[*:1])C(=O)[*:2]; αMeL = CC(C)C[C@](C)(N)C(=O)O; AEEA = NCCOCCOCC(=O)O; Aib = CC(C)(N)C(=O)O
OUTCOME_MEASURE: clearance (mL/day/kg)
The response must be a number in mL/day/kg with no trailing unit.

Fill in the blank: the reported clearance of Ac-GSPSIVTS[αMeL]DVPT[Aib][αMeL]LQKILEQERAEKARQQAK([γGlu-AEEA-εLys-C20 diacid])EAAEILAQV-NH2 [SEQ ID NO: 1] is ____.
12.2

###

# MEASUREMENT_DESCRIPTION: Pharmacokinetics in Cynomolgus monkeys, single subcutaneous or intravenous dose
# Assay type: in vivo
# APPLIED_CONDITIONS: both sexes, cynomolgus monkey, plasma, sc, 183 nmol/kg, single subcutaneous dose 183 nmol/kg, Mean
*1 amine or outer side, *2 acyl side, *3 side chain or, on linkers, in order; H or OH if unused. Side-chain parts run from the residue outwards. [ ]: non-standard residue; d: D form. The star is where a group is joined. C20 diacid = O=C(O)CCCCCCCCCCCCCCCCCCC(=O)*; γGlu = O=C(O)[C@H](CCC(=O)[*:2])N[*:1]; εLys = N[C@@H](CCCCN[*:1])C(=O)[*:2]; pGlu = O=C1CC[C@@H](C(=O)O)N1; αMeL = CC(C)C[C@](C)(N)C(=O)O; AEEA = NCCOCCOCC(=O)O; Aib = CC(C)(N)C(=O)O
OUTCOME_MEASURE: half-life (h)
The response must be a number in h with no trailing unit.

Fill in the blank: the reported half-life of [pGlu]GSPSGIVTS[αMeL]DVPT[Aib][αMeL]LQKILEQERAEKARQQAK([γGlu-AEEA-εLys-C20 diacid])EAAEILAQV-NH2 [SEQ ID NO: 22] is ____.
136

###

# MEASUREMENT_DESCRIPTION: Pharmacokinetics in Cynomolgus monkeys, single subcutaneous or intravenous dose
# Format: in vivo
# APPLIED_CONDITIONS: both sexes, cynomolgus monkey, plasma, sc, 187 nmol/kg, single subcutaneous dose 187 nmol/kg, Mean, read-out: Tmax
# Protocol: Plasma concentrations of compounds were determined by LC/MS methods. For each assay, the compound and an internal standard (IS), were extracted from 100% mouse, rat, pig, or monkey plasma (70 μL) using Isopropanol-Methanol. Two distinct layers were formed upon centrifugation with the compound and the IS located in the supernatant layer. […] The column effluent was directed into a Thermo Fisher Scientific Orbitrap (Exploris 240) mass spectrometer for detection and quantitation. […]
*1 amine or outer side, *2 acyl side, *3 side chain or, on linkers, in order; H or OH if unused. Side-chain parts run from the residue outwards. [ ]: non-standard residue; d: D form. The star is where a group is joined. C20 diacid = O=C(O)CCCCCCCCCCCCCCCCCCC(=O)*; γGlu = O=C(O)[C@H](CCC(=O)[*:2])N[*:1]; εLys = N[C@@H](CCCCN[*:1])C(=O)[*:2]; αMeL = CC(C)C[C@](C)(N)C(=O)O; AEEA = NCCOCCOCC(=O)O; Aib = CC(C)(N)C(=O)O
OUTCOME_MEASURE: Tmax

Fill in the blank: the reported Tmax of Ac-GSPSIVTS[αMeL]DVPT[Aib][αMeL]LQKILEQERAEKARQQAK([γGlu-AEEA-εLys-C20 diacid])EAAEILAQV-NH2 [SEQ ID NO: 1] is ____.
48 h

###

EC50 reference
# TARGET_UNDER_TEST: human CRHR1 (Homo sapiens, UniProt P34998)
# Construct: expressed in transfected cells
# Sequence (P34998 24-415): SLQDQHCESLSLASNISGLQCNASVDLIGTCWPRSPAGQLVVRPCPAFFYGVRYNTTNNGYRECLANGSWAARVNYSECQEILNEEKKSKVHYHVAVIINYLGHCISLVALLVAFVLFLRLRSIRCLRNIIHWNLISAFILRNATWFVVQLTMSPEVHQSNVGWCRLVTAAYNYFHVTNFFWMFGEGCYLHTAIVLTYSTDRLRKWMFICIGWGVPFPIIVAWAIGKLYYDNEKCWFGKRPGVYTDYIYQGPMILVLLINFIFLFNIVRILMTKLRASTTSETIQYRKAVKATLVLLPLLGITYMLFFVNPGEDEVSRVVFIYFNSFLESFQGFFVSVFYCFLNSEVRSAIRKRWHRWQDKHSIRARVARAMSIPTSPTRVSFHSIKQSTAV
# MEASUREMENT_DESCRIPTION: Human CRHR1 cAMP assay (HTRF) in HEK293 cells stably expressing human CRHR1
# Assay type: cell-based
# APPLIED_CONDITIONS: HEK293 cells overexpressing human CRHR1; relative EC50, maximum 66 nM human UCN1; mean ± SE; read-out: hCRHR1 cAMP EC50 (pM, ± SE)
*1 amine or outer side, *2 acyl side, *3 side chain or, on linkers, in order; H or OH if unused. Bridges are numbered along the chain shown (N, C = ends). Roman numbers before positions name the chains, in order. [ ]: non-standard residue; d: D form. The star is where a group is joined. C20 diacid = O=C(O)CCCCCCCCCCCCCCCCCCC(=O)*; C18 diacid = O=C(O)CCCCCCCCCCCCCCCCC(=O)*; γGlu = O=C(O)[C@H](CCC(=O)[*:2])N[*:1]; εLys = N[C@@H](CCCCN[*:1])C(=O)[*:2]; αMeL = CC(C)C[C@](C)(N)C(=O)O; AEEA = NCCOCCOCC(=O)O; Aib = CC(C)(N)C(=O)O

Consider the reported EC50 for these substances:
INSERT INTO assay_data (substance, target_under_test, result) VALUES
  ('{C18 diacid-εLys-AEEA-γGlu}-GSPSIVTS[αMeL]DVPT[Aib][αMeL]LQKILEQERAEKARQQATEAAEILAQV-NH2 [SEQ ID NO: 28]', 'human CRHR1 (Homo sapiens, UniProt P34998)', '> 1e+07 pM'),
  ('H-GSPSIVTS[αMeL]DVPT[Aib][αMeL]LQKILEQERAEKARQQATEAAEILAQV-NH2 [SEQ ID NO: 27]', 'human CRHR1 (Homo sapiens, UniProt P34998)', '> 1e+07 pM');

Lab note: need EC50 with human CRHR1 (Homo sapiens, UniProt P34998) for entry I: Ac-GSPSIVTS[αMeL]DVPT[Aib][αMeL]LQKILEQERAEKARQQAKEAAEILAQV-NH2 / II: {C20 diacid}-EPEPEP[γGlu] (amide I:33-II:C) [SEQ ID NO: 16] , please look it up.
> 1e+07 pM

###

# MEASUREMENT_DESCRIPTION: Pharmacokinetics in Sprague Dawley rats, single subcutaneous or intravenous dose (incl. 10, 30, 100 nmol/kg dose response)
# Assay type: in vivo
# APPLIED_CONDITIONS: male, Sprague Dawley, rat, plasma, sc, 10 nmol/kg, dose response, single subcutaneous dose 10 nmol/kg, mean, read-out: CL/F (converted)
*1 amine or outer side, *2 acyl side, *3 side chain or, on linkers, in order; H or OH if unused. Side-chain parts run from the residue outwards. [ ]: non-standard residue; d: D form. The star is where a group is joined. C20 diacid = O=C(O)CCCCCCCCCCCCCCCCCCC(=O)*; γGlu = O=C(O)[C@H](CCC(=O)[*:2])N[*:1]; εLys = N[C@@H](CCCCN[*:1])C(=O)[*:2]; pGlu = O=C1CC[C@@H](C(=O)O)N1; αMeL = CC(C)C[C@](C)(N)C(=O)O; AEEA = NCCOCCOCC(=O)O; Aib = CC(C)(N)C(=O)O
OUTCOME_MEASURE: CL/F (mL/h/kg)
The response must be a number in mL/h/kg with no trailing unit.

Consider the reported CL/F for these substances:
INSERT INTO assay_data (substance, outcome_measure, number) VALUES
  ('[pGlu]GSPSGIVTS[αMeL]DVPT[Aib][αMeL]LQKILEQERAEKARQQAK([γGlu-AEEA-εLys-C20 diacid])EAAEILAQV-NH2 [SEQ ID NO: 22]', 'CL/F', 3.63),
  ('Ac-GSPSIVTS[αMeL]DVPT[Aib][αMeL]LQKILEQERAEKARQQAK([γGlu-AEEA-εLys-C20 diacid])EAAEILAQV-NH2 [SEQ ID NO: 1]', 'CL/F', 5.28);

Fill in the blank: the reported CL/F of {C20 diacid-εLys-AEEA-γGlu}-GSPSIVTS[αMeL]DVPT[Aib][αMeL]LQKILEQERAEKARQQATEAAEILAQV-NH2 [SEQ ID NO: 25] is ____.
9.76
